- ASSAY_TARGET: Albumin (Bos taurus) (UniProt P02769)
- Sequence (P02769 whole entry, looked up): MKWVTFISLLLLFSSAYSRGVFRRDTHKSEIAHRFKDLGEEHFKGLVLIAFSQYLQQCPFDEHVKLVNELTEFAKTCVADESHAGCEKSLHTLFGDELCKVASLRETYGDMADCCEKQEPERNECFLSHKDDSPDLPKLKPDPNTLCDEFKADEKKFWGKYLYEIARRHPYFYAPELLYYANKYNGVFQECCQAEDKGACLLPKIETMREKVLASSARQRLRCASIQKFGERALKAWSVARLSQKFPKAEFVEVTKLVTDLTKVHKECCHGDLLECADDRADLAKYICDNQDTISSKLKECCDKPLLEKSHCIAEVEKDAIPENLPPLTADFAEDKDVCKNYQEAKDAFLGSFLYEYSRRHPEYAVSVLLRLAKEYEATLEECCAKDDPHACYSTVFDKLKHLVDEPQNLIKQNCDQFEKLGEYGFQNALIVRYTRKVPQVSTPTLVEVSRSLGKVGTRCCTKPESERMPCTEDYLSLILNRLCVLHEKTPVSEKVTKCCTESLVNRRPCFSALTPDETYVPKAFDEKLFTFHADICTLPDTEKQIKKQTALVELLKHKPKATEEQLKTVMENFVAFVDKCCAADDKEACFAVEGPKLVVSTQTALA
- PROCEDURE_SUMMARY: bovine serum albumin binders on microarray, profiling panel, artefact control for SMM control protein annotation, biochemical, small-molecule microarray, Alexa647 label, 635/667 nm fluorescence (AID 1118);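 further: score merges 667 nm emission intensity and signal-to-noise per printed compound spot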
- APPLIED_CONDITIONS: BSA-A647 binding, fluorescence 635 nm, higher = more signal
Reported composite z-score values are given for each entry in this list.

COMPOUND	composite z-score
CCCCCCc1nc(-c2ccc(OC)nc2)cc2c1[Si](C(C)C)(C(C)C)OC2	-0.361
COC(=O)[C@@]1(Cc2ccc(OC)cc2)[C@H]2c3cc(C(=O)N4CCCC4)n(CCc4ccc(OC)c(Br)c4)c3C[C@H]2CN1C(=O)c1ccccc1	1.01
O=C1O[C@H](c2ccccc2)[C@H](c2ccccc2)N2[C@H]1[C@@H](C(=O)NC[C@H](O)c1ccccc1)[C@]1(C(=O)Nc3ccc(C#CCCO)cc31)[C@H]2c1ccccc1OCCO	0.695
CO[C@H]1O[C@H](CO)[C@@H](OC(=O)Nc2ccc(C(F)(F)F)cc2)[C@H](OC(=O)Nc2ccccc2-c2ccccc2)[C@@H]1OC(=O)Nc1ccccc1-c1ccccc1	0.816
N[C@@H](Cc1ccccc1)Cn1cc(C2(O)CCCCC2)nn1	-0.052
CCCCC(O)C1C=CC2C(=O)N(C)C(=O)C2N1Nc1ccccc1 (centres undefined)	0.555
COC(=O)C1=CC(CCCO)=CC(C2CC2)N(Cc2cccc(OC(F)(F)F)c2)C=C1C(=O)OC (centres undefined)	0.896
CC(C)C[C@@H]1NC(=O)[C@@H]2C[C@H](C(=O)O)[C@H](c3ccc(O)cc3)N2C1=O	-1.01
COc1cccc(C[C@H]2C[C@@H](CO[Si](C(C)C)(C(C)C)C(C)C)N3C(=O)[C@@]4(C(C)=O)O[C@@]23[C@@H]2C(=O)N(C)C(=O)[C@@H]24)c1	0.166
COc1ccccc1CN1C(=O)c2ccccc2[C@](Cc2ccccc2I)(C(=O)NCCCN(C)C)[C@@H]1c1ccc(CO)cc1	0.0893
O=C1OCCC=C[C@H]2OC34C=CCN(CCN5CCOCC5)C(=O)[C@H]3N(CCCO)C(=O)[C@@H]4C12 (some centres undefined)	-0.444
COc1ccc(C#Cc2ccc3c(c2)[C@]2(C(=O)N3)[C@H](C(=O)Nc3nc4ccccc4s3)[C@H]3C(=O)O[C@H](c4ccccc4)[C@H](c4ccccc4)N3[C@@H]2c2ccc(OCCO)cc2)cc1	0.789
COCCOC(=O)N1C(=O)[C@@]2(c3cc(C#CCCO)ccc31)[C@H](c1ccccc1OCCO)N1[C@H](c3ccccc3)[C@H](c3ccccc3)OC(=O)[C@H]1[C@@H]2C(=O)N1CCc2cc(OC)c(OC)cc2C1	0.329
CCCC=C(CCC)[C@@H](NS(=O)(=O)c1ccc(Cl)cc1)c1ccccc1	0.046

* * *

Below is a list of entries, each paired with its recorded composite z-score value.
- ASSAY_TARGET: Left-right determination factor 2 (Homo sapiens)
- PROCEDURE_SUMMARY: LEFTY2 binders on small-molecule microarrays, primary screen, biochemical, small-molecule microarray, 635 nm fluorescence scan (AID 1110)
- APPLIED_CONDITIONS: LEFTY2 binding, higher = more signal

COMPOUND	ASSAY_TARGET	composite z-score
N[C@@H](Cc1ccccc1)Cn1cc(C2(O)CCCCC2)nn1	Left-right determination factor 2 (Homo sapiens)	0.0904
COCCOC(=O)N1C(=O)[C@@]2(c3ccccc31)[C@H](c1ccc(OCCO)cc1)N1[C@H](c3ccccc3)[C@H](c3ccccc3)OC(=O)[C@H]1[C@@H]2C(=O)N1CCN(c2ncccn2)CC1	Left-right determination factor 2 (Homo sapiens)	1.06
C#CCN=C(N)N	Left-right determination factor 2 (Homo sapiens)	1.11
O=C1OCCC=C[C@H]2OC34C=CCN(c5ccc(Cl)cc5)C(=O)[C@H]3N(CCO)C(=O)[C@@H]4C12 (stereo partly drawn)	Left-right determination factor 2 (Homo sapiens)	-1.34
C=CCC(OC(C)=O)[C@@H]1[C@@H](N(Cc2cc3ccccc3o2)C(=O)c2ccc(-c3ccccc3)cc2)c2cc(OCCCO)ccc2N1C(=O)c1ccc2ccccc2n1 (stereo partly drawn)	Left-right determination factor 2 (Homo sapiens)	0.163
CCCCN1CC=CC23O[C@@H]4C=CCOC(=O)[C@@H]4[C@H]2C(=O)N(CCO)[C@@H]3C1=O (stereo partly drawn)	Left-right determination factor 2 (Homo sapiens)	-2.32
CN(C)CCCC[C@@H]1NC(=O)[C@H]2C[C@@H](C(=O)NCc3ccc(F)cc3)[C@@H](c3ccc(O)cc3)N2C1=O	Left-right determination factor 2 (Homo sapiens)	1.15
CC(C)(C)OC(=O)CC[C@]1(C(N)=O)N=C(c2ccc(OCCCO)cc2)O[C@H]1c1ccccc1CN=[N+]=[N-]	Left-right determination factor 2 (Homo sapiens)	-0.63

* * *

Reported composite z-score is given for each of the following compounds.
- Tested on: Sonic hedgehog protein (Shh)
- PROCEDURE_SUMMARY: small-molecule binders of Shh protein, primary screen, biochemical, small-molecule microarray, 635/667 nm fluorescence (AID 1151);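 further: Shh protein binding to compounds spotted on small-molecule microarray slides; score combines spot fluorescence intensity with signal-to-noise across triplicate slides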
- APPLIED_CONDITIONS: small-molecule microarray binding, 635 nm fluorescence; higher = more signal

COMPOUND	ASSAY_TARGET	composite z-score
Cc1ccc(S[C@]2(C(=O)NCC(F)(F)F)CC(=O)N(C3CCCCC3)[C@@H]2c2ccc(CO)cc2)cc1	Sonic hedgehog protein (Shh)	-0.121
C=CCC(OC(C)=O)[C@@H]1[C@@H](N(Cc2cccc3ccccc23)C(=O)c2ccc(C)cc2)c2cc(OCCCO)ccc2N1C(=O)c1ccc2ccccc2n1 (stereo not given in full)	Sonic hedgehog protein (Shh)	0.709
C=CC[C@@]12N=C(c3ccc(OCCCO)cc3)O[C@@H]1c1ccccc1N(Cc1ccccc1)C2=O	Sonic hedgehog protein (Shh)	2.06
O=C(NCCO)C1=C[C@H](Oc2ccccc2I)[C@@H](O)[C@H](NCc2ccc(F)cc2)C1	Sonic hedgehog protein (Shh)	2.08
O=C1O[C@H](c2ccccc2)[C@H](c2ccccc2)N2[C@H]1[C@@H](C(=O)NC[C@H](O)c1ccccc1)[C@]1(C(=O)Nc3ccc(C#CCCO)cc31)[C@H]2c1ccccc1OCCO	Sonic hedgehog protein (Shh)	1.97
CC#CCO[Si](C#CCCCCCC)(C(C)C)C(C)C	Sonic hedgehog protein (Shh)	-1.62
COCCCNC(=O)[C@@H]1c2ccccc2C(=O)N(C2CCCCC2)[C@H]1c1ccc(CO)cc1	Sonic hedgehog protein (Shh)	-0.759
[N-]=[N+]=NCc1ccccc1C[C@]1(C(=O)N2CCOCC2)N=C(c2ccc(OCCCO)cc2)O[C@H]1c1ccccc1CN=[N+]=[N-]	Sonic hedgehog protein (Shh)	-0.0561
CCCCN1CC=CC23O[C@@H]4C=CCOC(=O)[C@@H]4[C@H]2C(=O)N(CCO)[C@@H]3C1=O (stereo not given in full)	Sonic hedgehog protein (Shh)	-0.858
COc1ccc(CCNC(=O)[C@@]2(C)c3ccccc3C(=O)N(Cc3cc(C(F)(F)F)cc(C(F)(F)F)c3)[C@H]2c2ccc(CO)cc2)cc1	Sonic hedgehog protein (Shh)	0.198
CCOC(=O)C1=CC[C@@H](c2ccc(F)cc2)N(S(=O)(=O)c2ccc(C)cc2)[C@H]1c1ccc([N+](=O)[O-])cc1	Sonic hedgehog protein (Shh)	-0.0316
C=CC[C@]1(C(=O)N(C)C)COC(c2ccc(OCCCO)cc2)=N1	Sonic hedgehog protein (Shh)	-0.174
COC(=O)[C@@]1(Cc2ccc(OC)cc2)[C@H]2c3cc(C(=O)N(C)C)n(Cc4ccsc4Br)c3C[C@H]2CN1C(=O)c1ccccc1	Sonic hedgehog protein (Shh)	0.105
C=C(/C(=C/C[C@H](OC(=O)c1ccncc1)c1ccccc1OCCO)c1cc(C(=O)OC)ccc1OC)C(C)C	Sonic hedgehog protein (Shh)	1.74
CC(C)C[C@@H]1NC(=O)[C@@]23C(=O)N[C@@H](Cc4ccccc4)C2[C@H](C)[C@@]2(C)O[C@H]2C3/C=C/C/C=C\CNC(=O)[C@@H](CC(C)C)NC1=O (stereo not given in full)	Sonic hedgehog protein (Shh)	1.39

* * *

- System: PRMT1 (protein arginine N-methyltransferase 1)
- PROCEDURE_SUMMARY: PRMT1 binders on small-molecule microarrays, primary screen, biochemical, small-molecule microarray, 635 nm fluorescence (AID 1088);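 further: binding of Prmt1 protein to compounds spotted on small-molecule microarray slides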
- APPLIED_CONDITIONS: small-molecule microarray binding, higher = more signal
Here, each record is paired with measured composite z-score data.

COMPOUND	composite z-score
CC(c1ccccc1)C(O)C1C=CC2C(=O)N(c3ccccc3)C(=O)C2N1Nc1ccc(C#N)cc1 (stereo not drawn)	1.55
CCOC(=O)C[C@H]1[C@H](OC(=O)c2ccc(-c3ccccc3)cc2)[C@@H](NC(=O)c2ccc3ccccc3c2)c2cc(OCCCO)ccc2N1C(=O)c1ccccc1	0.712
COc1ccc(NN2C(C(O)c3cc(C(F)(F)F)cc(C(F)(F)F)c3)C=CC3C(=O)N(C4CCCCC4)C(=O)C32)cc1 (stereo not drawn)	1.28
COc1ccc([Si](C)(C)[C@H]2[C@H](CC(=O)N3Cc4ccccc4C[C@H]3CO)O[C@@]3(C(=O)N(Cc4cccc(N5C(=O)c6cccc7cccc5c67)c4)c4ccccc43)[C@@H]2C)cc1	1.56
O=C1C2C=CC(C(O)c3cccc(O)c3)N(Nc3ccccc3F)C2C(=O)N1c1ccccc1 (stereo not drawn)	0.788
C=CC[C@]1(C(=O)OC)N=C(c2ccc(OCCCO)cc2)O[C@H]1c1ccccc1N=[N+]=[N-]	1.54
NC(=O)NCC#Cc1ccc2c(c1)[C@]1(C(=O)N2)[C@H](C(=O)Nc2nc3ccccc3s2)[C@H]2C(=O)O[C@H](c3ccccc3)[C@H](c3ccccc3)N2[C@@H]1c1ccc(OCCO)cc1	-0.006
C=CCOC(=O)[C@H]1[C@@H]2C(=O)O[C@@H](c3ccccc3)[C@@H](c3ccccc3)N2[C@@H](c2ccc(OCCOC(=O)[C@@H]3C[C@@H]4C(=O)N[C@@H](CC(C)C)C(=O)N4[C@@H]3c3ccc(O)cc3)cc2)[C@]12C(=O)Nc1ccc(I)cc12	1.58
[N-]=[N+]=NCc1ccccc1C[C@]1(C(=O)N2CCCCC2)N=C(c2ccc(OCCCO)cc2)O[C@H]1c1ccccc1	0.762
C=C(COC)/C(=C/C[C@H](OC(=O)c1ccncc1)c1ccc(OCCO)cc1)c1cc(C(=O)OC)ccc1OC	1.41
CN(C)CCCCNC(=O)[C@H]1C[C@H]2C(=O)N[C@@H](Cc3ccccc3)C(=O)N2[C@H]1c1cccc(OCCO)c1	0.193
NCCCC[C@@H]1NC(=O)[C@H]2C[C@@H](C(=O)O)[C@@H](c3cccc(OCCO)c3)N2C1=O	1.53
O=C1O[C@H](c2ccccc2)[C@H](c2ccccc2)N2[C@H]1[C@@H](C(=O)N1CCN(c3ncccn3)CC1)[C@]1(C(=O)Nc3ccccc31)[C@H]2c1ccc(O)cc1	1.51
